B1: EPB41L3 (parent)
chain: SMQCKVILLDGSEYTCDVEKRSRG

# Variants of: B1
# measurementProtocol: protein stability index of a GFP-peptide fusion (GPS, HEK-293T) (PSI 1-6); higher = more stable;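 note: lentivirally expressed fusions sorted by FACS into six bins by GFP to DsRed ratio, PSI derived from sequencing read proportions per bin multiplied by bin number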
# assayContext: c terminus: a fixed tail appended
For each of the variants below, state its protein stability index.
Returns: the value as a bare number; no unit string appended.

Data request: Entry L8K has what protein stability index?
Data returned: 3.43

Data request: Entry L8I has what protein stability index?
Data returned: 2.17

Data request: Entry D10W has what protein stability index?
Data returned: 1.09

Data request: Entry Q3R has what protein stability index?
Data returned: 2.37

Data request: Entry E19G has what protein stability index?
Data returned: 2.51

Data request: Entry R23A has what protein stability index?
Data returned: 3.05

Data request: Entry C16T has what protein stability index?
Data returned: 2.55

Data request: Entry V18D has what protein stability index?
Data returned: 3.36

Data request: Entry E13Q has what protein stability index?
Data returned: 2.98

Data request: Entry M2H has what protein stability index?
Data returned: 2.9

Data request: Entry K20V has what protein stability index?
Data returned: 2.11

Data request: Entry D10A has what protein stability index?
Data returned: 2.07

Data request: Entry S12K has what protein stability index?
Data returned: 3.51

Data request: Entry L9R has what protein stability index?
Data returned: 3.03

Data request: Entry K20S has what protein stability index?
Data returned: 2.52

Data request: Entry C16H has what protein stability index?
Data returned: 3.53

Data request: Entry K5G has what protein stability index?
Data returned: 3.57

Data request: Entry C4L has what protein stability index?
Data returned: 2.04

Data request: Entry Y14D has what protein stability index?
Data returned: 3.81

Data request: Entry S1Q has what protein stability index?
Data returned: 2.64

Data request: Entry G11M has what protein stability index?
Data returned: 1.73

Data request: Entry C4N has what protein stability index?
Data returned: 3.07

Data request: Entry R21N has what protein stability index?
Data returned: 1.92

Data request: Entry Y14E has what protein stability index?
Data returned: 3.83

Data request: Entry T15Q has what protein stability index?
Data returned: 3.19

Data request: Entry E13S has what protein stability index?
Data returned: 3.27

Data request: Entry D10S has what protein stability index?
Data returned: 2.04

Data request: Entry C4T has what protein stability index?
Data returned: 3.61

Data request: Entry L9D has what protein stability index?
Data returned: 4.09

Data request: Entry K20N has what protein stability index?
Data returned: 3.04

Data request: Entry E19L has what protein stability index?
Data returned: 1.99

Data request: Entry G11R has what protein stability index?
Data returned: 2.64

Data request: Entry S12R has what protein stability index?
Data returned: 2.99

Data request: Entry S1W has what protein stability index?
Data returned: 2

Data request: Entry C16K has what protein stability index?
Data returned: 3.07

Data request: Entry M2E has what protein stability index?
Data returned: 4.4

Data request: Entry G11V has what protein stability index?
Data returned: 2.64

Data request: Entry G24R has what protein stability index?
Data returned: 2.84

Data request: Entry E19Y has what protein stability index?
Data returned: 2.14

Data request: Entry C4Q has what protein stability index?
Data returned: 4.28

Data request: Entry S1K has what protein stability index?
Data returned: 1.93

Data request: Entry K20C has what protein stability index?
Data returned: 2.15

Data request: Entry G24H has what protein stability index?
Data returned: 2.47

Data request: Entry S22L has what protein stability index?
Data returned: 2.08

Data request: Entry G11I has what protein stability index?
Data returned: 1.99

Data request: Entry G11D has what protein stability index?
Data returned: 2.98
